- MEASURED TARGET: T1, human CD8 alpha (CD8A) on primary human CD8+ T cells (human, UniProt P01732 22-235)
- T1 construct: whole, on cells; also called hCD8A
- T1 sequence (P01732 22-235): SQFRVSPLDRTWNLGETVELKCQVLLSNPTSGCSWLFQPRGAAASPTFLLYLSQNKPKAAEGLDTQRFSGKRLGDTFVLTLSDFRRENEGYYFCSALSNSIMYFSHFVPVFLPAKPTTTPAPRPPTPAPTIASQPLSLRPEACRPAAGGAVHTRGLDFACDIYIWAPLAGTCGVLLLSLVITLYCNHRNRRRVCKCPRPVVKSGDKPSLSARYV
- ASSAY OVERVIEW: flow cytometry, human CD8+ T cells, 0.2 uM FN3
METRIC: Human T-cell Binding 0.2 uM (MFI)

# count of solved cases: 4
| BINDER | REPORTED |
| --- | --- |
| P282DR9P1359_E11 (designed binder, FN3 domain) LPAPKNLVVSRVTEDSARLSWTAPDAAFDSFYISYPEWPPVGEAIVLTVPGSERSYDLTGLKPGTEYWVIIYGVKGGAISTPLSAIFTT | 7580 |
| P283BR9P1363_D11 (designed binder, FN3 domain) LPAPKNLVVSRVTEDSARLSWNKKHDGQPTFDSFLIQYQESEKVGEAIVLTVPGSERSYDLTGLKPGTEYTVSIYGVDVVYEGSYPASSNPLSAIFTT | 2890 |
| P283AR9P1362_B10 (designed binder, FN3 domain) LPAPKNLVVSRVTEDSARLSWKRRWDSFDSFLIQYQESEKVGEAIVLTVPGSERSYDLTGLKPGTEYTVSIYGVDVEWFNGLPHHSNPLSAIFTT | 3700 |
| P283AR9P1362_A3 (designed binder, FN3 domain) LPAPKNLVVSRVTEDSARLSWKRIDSPFDSFLIQYQESEKVGEAIVLTVPGSERSYDLTGLKPGTEYTVSIYGVDVKYDIDSRPISSNPLSAIFTT | 1400 |

a: P282ER9P1360_E4 (designed binder, FN3 domain) LPAPKNLVVSRVTEDSARLSWTAPDAAFDSFGILYYEPVDSGEAITLPVLGSERSYDLTGLKPGTEYWVVITGVKGGAPSTPLGAIFTT
b: P283AR9P1362_D4 (designed binder, FN3 domain) LPAPKNLVVSRVTEDSARLSWVREHDSFDSFLIQYQESEKVGEAIVLTVPGSERSYDLTGLKPGTEYTVSIYGVDVKYDIDSRPISSNPLSAIFTT
Parameter check: reported Human T-cell Binding 0.2 uM (MFI) is higher for which label, a or b ? # answer = label of selected item
a
(a: 5030 MFI, b: 2980 MFI)

a: P282FR9P1361_F3 (designed binder, FN3 domain) LPAPKNLVVSRVTEDSARLSWTAPDAAFDSFDIWYAEYGYPGEAIVLTVPGSERSYDLTGLKPGTEYDVAISGAKGGPRSYPLSAIFTT
b: P282BR9P1357_E5 (designed binder, FN3 domain) LPAPKNLVVSRVTEDSARLSWWPRKYQRPFDSFLIQYQESEKVGEAIVLTVPGSERSYDLTGLKPGTEYTVSIYGVDIEWIGNRPIASNPLSAIFTT
Returns the identifier with the smallest measured Human T-cell Binding 0.2 uM (MFI) among a and b . # answer = label of selected item
a
(a: 674 MFI, b: 2590 MFI)
